tested on: P. aeruginosa 2297 (AmpC wt); experiment: MIC determination, broth microdilution (CLSI); type: cell-based; settings: Pseudomonas aeruginosa, strain 7
Give measured MIC for each item. Keep answers brief.
Give bare numbers, in µg/mL.

>  <Compound>
CC1(C)[C@H](NC(=O)/C(=N\OCCCOc2ccc(C(=N)N)cc2)c2csc(N)n2)C(=O)N1OS(=O)(=O)O

>  <MIC / µg/mL>
32

$$$$
>  <Compound>
C[C@@H]1[C@H](NC(=O)/C(=N\OCCOc2ccc(C(=N)N)cc2)c2csc(N)n2)C(=O)N1S(=O)(=O)O

>  <MIC / µg/mL>
2

$$$$
>  <Compound>
CC1(C)[C@H](NC(=O)/C(=N\O[C@@H](COc2ccc(C(=N)NCC3CCCCN3)cc2)C(=O)O)c2csc(N)n2)C(=O)N1OS(=O)(=O)O (stereo partly shown)

>  <MIC / µg/mL>
2

$$$$
>  <Compound>
CC1(C)[C@H](NC(=O)/C(=N\OCCOc2ccc(C(=N)NCC(=O)O)cc2)c2csc(N)n2)C(=O)N1OS(=O)(=O)O

>  <MIC / µg/mL>
32

$$$$
>  <Compound>
C[C@H]1[C@H](NC(=O)/C(=N\OCc2cc(C(=N)N)cs2)c2csc(N)n2)C(=O)N1S(=O)(=O)O

>  <MIC / µg/mL>
32

$$$$

Value sought for every listed compound: MIC.
1. CC1(C)[C@H](NC(=O)/C(=N\O[C@@H](COc2ccc(C(=N)N[C@@H]3CCNC3)cc2)C(=O)O)c2csc(N)n2)C(=O)N1OS(=O)(=O)O
2. C[C@H]1[C@H](NC(=O)/C(=N\OCCOc2cccc(C(=N)N)c2)c2csc(N)n2)C(=O)N1S(=O)(=O)O
3. CC1(C)[C@H](NC(=O)/C(=N\OC(COc2ccc(C(=N)N)nc2)C(=O)O)c2csc(N)n2)C(=O)N1OS(=O)(=O)O (mixture of isomers) [Example 36A]
4. CC1(C)[C@H](NC(=O)/C(=N\O[C@@H](COc2ccc(C(=N)NCCNc3ncccn3)cc2)C(=O)O)c2csc(N)n2)C(=O)N1OS(=O)(=O)O
5. C[C@H]1[C@H](NC(=O)/C(=N\OCCOc2ccc(C(=N)NCCOC=O)cc2)c2csc(N)n2)C(=O)N1S(=O)(=O)O
6. CC(C)NC(=N)c1ccc(OCCO/N=C(\C(=O)N[C@@H]2C(=O)N(S(=O)(=O)O)[C@H]2C)c2csc(N)n2)cc1
7. CN1CC[C@H](NC(=N)c2ccc(OC[C@H](O/N=C(\C(=O)N[C@@H]3C(=O)N(OS(=O)(=O)O)C3(C)C)c3csc(N)n3)C(=O)O)cc2)C1
8. CC1(C)[C@H](NC(=O)/C(=N\OCCOc2ccc(C(=N)NCCNC=N)cc2)c2csc(N)n2)C(=O)N1OS(=O)(=O)O

1
16
4
8
4
8
4
8

====

test system: H. influenzae ATCC 49247; test: MIC determination, broth microdilution (CLSI); format: cell-based; settings: Haemophilus influenzae, ATCC49247, strain 12; broth microdilution; read-out: MIC strain 12 (H. influenzae ATCC 49247)
Endpoint: MIC

>  <Molecular string>
CN1CC(NC(=N)c2ccc(OC[C@H](O/N=C(\C(=O)N[C@@H]3C(=O)N(OS(=O)(=O)O)C3(C)C)c3csc(N)n3)C(=O)O)cc2)C1

>  <MIC>
≤ 0.063 µg/mL

$$$$
>  <Molecular string>
CC1(C)[C@H](NC(=O)/C(=N\OCCOc2ccc(C(=N)N)cc2)c2csc(N)n2)C(=O)N1OS(=O)(=O)O

>  <MIC>
≤ 0.063 µg/mL

$$$$

Consider the record given below.
// MIC lookup, key: C[C@H]1[C@H](NC(=O)/C(=N\OCCOc2ccc(C(=N)NCCO)cc2)c2csc(N)n2)C(=O)N1S(=O)(=O)O ≤ 0.063 µg/mL

====

tested on: P. aeruginosa PAO1; assay: MIC determination, broth microdilution (CLSI); assay type: cell-based; conditions: Pseudomonas aeruginosa, PAO1, strain 6
Endpoint: MIC (µg/mL)
Answers are plain numbers, in µg/mL.

>  <Compound>
CC1(C)[C@H](NC(=O)/C(=N\OC(CO)COc2ccc(C(=N)N)cc2)c2csc(N)n2)C(=O)N1OS(=O)(=O)O (mixture of isomers) [Example 45A]

>  <System tested>
P. aeruginosa PAO1

>  <Unit spec>
µg/mL

>  <MIC>
8

$$$$

Value sought for every listed compound: MIC.
1. C[C@H]1[C@H](NC(=O)/C(=N\OCCOc2ccc(C(=N)N)cc2CO)c2csc(N)n2)C(=O)N1S(=O)(=O)O [Example 59]
2. C[C@H]1[C@H](NC(=O)/C(=N\OCCOc2ccc(C(=N)NCCN)cc2)c2csc(N)n2)C(=O)N1OCS(=O)(=O)O [Example 77]

1: 16; 2: 8

====

Give measured strain 20 MIC for each item. Keep answers brief.
system: strain 20; assay: MIC determination, broth microdilution (CLSI); assay type: cell-based

// known answers, use as guide
>  <Compound>
C[C@H]1[C@H](NC(=O)/C(=N\OC(COc2ccc(C(=N)N)cc2)C(=O)O)c2csc(N)n2)C(=O)N1S(=O)(=O)O (mixture of isomers) [Example 26A]

>  <strain 20 MIC>
0.125 µg/mL

$$$$
>  <Compound>
CC1(C)[C@H](NC(=O)/C(=N\OC(COc2ccc(C(=N)N)c(O)c2)C(=O)O)c2csc(N)n2)C(=O)N1OS(=O)(=O)O (mixture of isomers) [Example 34A]

>  <strain 20 MIC>
0.5 µg/mL

$$$$
>  <Compound>
CC1(C)[C@H](NC(=O)/C(=N\OC(COc2ccc(C(=N)N)nc2)C(=O)O)c2csc(N)n2)C(=O)N1OS(=O)(=O)O (mixture of isomers) [Example 36B]

>  <strain 20 MIC>
2 µg/mL

$$$$

// strain 20 MIC lookup, key: C[C@H]1[C@H](NC(=O)/C(=N\OC(COc2ccc(C(=N)N)cc2)C(=O)O)c2csc(N)n2)C(=O)N1S(=O)(=O)O (mixture of isomers) [Example 26B] 2 µg/mL

====

Give measured MIC for each item. Keep answers brief.
test system: H. influenzae ATCC 49247; test: MIC determination, broth microdilution (CLSI); type: cell-based; conditions: Haemophilus influenzae, ATCC49247, strain 12; broth microdilution; read-out: MIC strain 12 (H. influenzae ATCC 49247)
One number for each entry, in µg/mL.

// known answers, use as guide
>  <Compound>
C[C@H]1[C@H](NC(=O)/C(=N\OCCOc2ccc(C(=N)NCCOC=O)cc2)c2csc(N)n2)C(=O)N1S(=O)(=O)O [Example 70]

>  <System tested>
H. influenzae ATCC 49247

>  <MIC (µg/mL)>
0.125

$$$$
>  <Compound>
C[C@@H]1[C@H](NC(=O)/C(=N\OCCCOc2ccc(C(=N)N)cc2)c2csc(N)n2)C(=O)N1S(=O)(=O)O [Example 48]

>  <System tested>
H. influenzae ATCC 49247

>  <MIC (µg/mL)>
0.5

$$$$
>  <Compound>
CC1(C)[C@H](NC(=O)/C(=N\OCCOc2ccc(C(=N)NCC(=O)O)cc2)c2csc(N)n2)C(=O)N1OS(=O)(=O)O [Example 73]

>  <System tested>
H. influenzae ATCC 49247

>  <MIC (µg/mL)>
0.25

$$$$
>  <Compound>
CC1(C)[C@H](NC(=O)/C(=N\OC(COc2ccc(C(=N)N)cc2)CC(=O)O)c2csc(N)n2)C(=O)N1OS(=O)(=O)O (mixture of isomers) [Example 46]

>  <System tested>
H. influenzae ATCC 49247

>  <MIC (µg/mL)>
0.25

$$$$

Consider the record given below.
// MIC lookup, key: CC1(C)[C@H](NC(=O)/C(=N\OC(CCO)COc2ccc(C(=N)N)cc2)c2csc(N)n2)C(=O)N1OS(=O)(=O)O (single isomer, unassigned) [Example 81A] 2

====

system: Bacteria; experiment: MIC determination in combination with β-lactamase inhibitors (constant 4 μg/mL); format: cell-based; conditions: strain 19; E. coli J62-TEM-3 + 4 μg/mL clavulanic acid
Endpoint: MIC strain 19 (E. coli J62-TEM-3 + 4 μg/mL clavulanic acid) (µg/mL)
One number for each entry, in µg/mL.

>  <Compound>
C[C@H]1[C@H](NC(=O)/C(=N\OCCOc2ccc(C(=N)N)cc2COC=O)c2csc(N)n2)C(=O)N1S(=O)(=O)O [Example 60]

>  <System tested>
Bacteria

>  <Measured result>
2

$$$$

Consider the record given below.
Missing value: MIC strain 19 (E. coli J62-TEM-3 + 4 μg/mL clavulanic acid), Bacteria, entry CC1(C)[C@H](NC(=O)/C(=N\O[C@@H](COc2ccc(C(=N)N[C@H]3CCNC3)cc2)C(=O)O)c2csc(N)n2)C(=O)N1OS(=O)(=O)O [Example 93] . Fill in? 0.125
